Source listed as ChEMBL document CHEMBL1201862.

# System: OVCAR-8
# test.summary: NCI tumour cell line growth inhibition, 48 h
Calls of active or inactive are those of the source. Rule as the data show it: active = GI50 up to about 1.1 µM and inactive = higher. Where a SMILES comes first, the peptide text is derived from it. [ ]: non-standard residue; d: D form. pGlu = O=C1CC[CH](C(=O)O)N1

{"molecule": "C[C@]12CC[C@@H]3c4ccc(O)cc4CC[C@H]3[C@@H]1CC[C@@H]2OP(=O)(O)O", "GI50": "> 100 µM (inactive)"}
{"molecule": "Cc1ccc(S(=O)(=O)NCc2cccc([N+](=O)[O-])c2)cc1", "GI50": "> 100 µM (inactive)"}
{"molecule": "CC(C)(C)CC(C)(C)NC(=S)NO", "GI50": "> 100 µM (inactive)"}
{"molecule": "Cn1c(=O)c2nc(CCCCc3nc4c(=O)n(C)c(=S)n(C)c4[nH]3)[nH]c2n(C)c1=S", "GI50": "> 100 µM (inactive)"}
{"molecule": "O=C(Cn1c2ccc(Br)cc2c2nc3ccccc3nc21)NC1CCCCC1", "GI50": "> 100 µM (inactive)"}
{"molecule": "O=C1CCc2ccc(O)c(c2)Oc2ccc(cc2)C(Sc2ccccc2)CCO1 (configuration not stated)", "GI50": "18.1 µM (inactive)"}
{"molecule": "Cc1cn(C(Cc2ccccc2)OCCO)c(=O)[nH]c1=O (configuration not stated)", "GI50": "> 100 µM (inactive)"}
{"molecule": "CCc1n[nH]c(=O)n1CCCCCCCCCCCCn1c(CC)n[nH]c1=O", "GI50": "24.7 µM (inactive)"}
{"molecule": "O=C1NC(=O)C(C(=O)C(=O)Nc2ccc(Br)cc2)C(=O)N1", "GI50": "> 100 µM (inactive)"}
{"molecule": "CCC(=O)Nc1ccc(NCC(=O)Nc2ccc(Cl)cc2)cc1", "GI50": "27.5 µM (inactive)"}
{"molecule": "O=C(Cc1c(C(=O)Nc2ccccc2)sc(C(=O)Nc2ccccc2)c1CC(=O)Nc1ccccc1)Nc1ccccc1", "GI50": "> 100 µM (inactive)"}
{"molecule": "CC(C)(C)C1CC[C@H](O)[C@H]([C@H](O)CC2CC(=O)N(c3ccccc3)C(=O)C2)C1 (some centres not stated)", "GI50": "> 100 µM (inactive)"}
{"molecule": "C#C[C@@]1(O)CCCC2=CC3(CC[C@]21C)SCCS3", "GI50": "> 100 µM (inactive)"}
{"molecule": "CCCNC(=S)NNC(=O)CSc1nc(-c2ccccc2)c(-c2ccccc2)[nH]1", "GI50": "73.1 µM (inactive)"}
{"molecule": "O=C1C=CC2=[N+]([O-])C(c3ccccc3)(c3ccccc3)/C(=N\\c3ccccc3)C2=C1", "GI50": "1.75 µM (inactive)"}
{"molecule": "COc1ccc2c(c1)C(N)CC2=O (configuration not stated)", "GI50": "> 100 µM (inactive)"}
{"molecule": "Cc1ccc([N+](=O)[O-])cc1S(=O)(=O)Nc1ccc(C2=NN(c3ccc([N+](=O)[O-])cc3[N+](=O)[O-])C(c3ccccc3O)C2)cc1 (configuration not stated)", "GI50": "38.4 µM (inactive)"}
{"molecule": "COC(=O)C12CC3CC(CC(C(=O)O)(C3)C1)C2", "GI50": "> 100 µM (inactive)"}
{"molecule": "CC1=CC(C)(C)[C@H]2O[C@@]3(O)C[C@]4(C)[C@H]5C[C@@](C(C)C)(O[C@H]4c4ccoc4)O[C@H]4[C@]5(C3)O[C@@]1(O)[C@]24O", "GI50": "> 100 µM (inactive)"}
{"molecule": "CCc1cccc(C(C)C)c1NC(=O)C(=O)C1C(=O)NC(=O)NC1=O", "GI50": "> 100 µM (inactive)"}
{"molecule": "CC1=NNC(=O)C1C1(C(=O)O)CC(c2c[nH]c3ccccc23)=NC(=S)N1 (configuration not stated)", "GI50": "39.4 µM (inactive)"}
{"molecule": "Cc1ccc(-c2cc(-c3ccco3)c(C#N)c(=O)n2C2OC(CO)C(O)C(O)C2O)cc1 (configuration not stated)", "GI50": "32.2 µM (inactive)"}
{"molecule": "COc1cc(S(=O)(=O)Nc2nc(-c3ccc(/N=C/c4ccccc4O)cc3)cs2)ccc1Cl", "GI50": "38.5 µM (inactive)"}
{"molecule": "Cc1ccc(S(=O)(=O)c2c(N)c3nc4ccccc4n3c3nc4ccccc4nc23)cc1", "GI50": "> 100 µM (inactive)"}
{"molecule": "COc1ccc(S(=O)(=O)Nc2ccc(-c3csc(N4C(=O)/C(=C/C=C\\c5ccccc5)N=C4c4ccccc4)n3)cc2)cc1Cl", "GI50": "23.2 µM (inactive)"}
{"molecule": "Cc1ccc2ccc(O)cc2c1", "GI50": "23.3 µM (inactive)"}
{"molecule": "CC1OC(OC2C(O)COC(OC3C(C)OC(OC4C(OC(=O)[C@]56CCC(C)(C)C[C@@H]5C5=CCC7[C@@]8(C)C[C@H](O)[C@H](OC9OC(CO)C(O)C(OC%10OC(CO)C(O)C(O)C%10O)C9O)[C@@](C)(CO)[C@@H]8CC[C@@]7(C)[C@]5(C)CC6)OCC(O)C4O)C(O)C3OC3OCC(O)(CO)C3O)C2O)C(O)C(O)C1O (some centres not stated)", "GI50": "9.84 µM (inactive)"}
{"molecule": "Cc1[nH]c2ccccc2c1C1=CC(=O)N(c2ccccc2)C1=O", "GI50": "14.8 µM (inactive)"}
{"molecule": "CC(NNC(=O)c1ccc[n+]([BH2-]C#N)c1)c1ccccc1 (configuration not stated)", "GI50": "> 100 µM (inactive)"}
{"molecule": "CN1c2ccccc2N(C(=O)c2ccccc2)C(CC(=O)O)c2cccn21 (configuration not stated)", "GI50": "> 100 µM (inactive)"}
{"molecule": "N#CC(NCCc1ccccc1)c1ccccc1 (configuration not stated)", "GI50": "> 100 µM (inactive)"}
{"molecule": "Clc1cc(-c2ccccc2)nc2ccccc12", "GI50": "59.7 µM (inactive)"}
{"molecule": "O=C1NC(=O)[C@@H](OCC2CCCCC2)[C@@H]2OCC3OC(C(O)C3O)C12 (some centres not stated)", "GI50": "> 100 µM (inactive)"}
{"molecule": "O=C1Cc2c([nH]c3ccc(C(=O)O)cc23)-c2ccccc2N1", "GI50": "> 100 µM (inactive)"}
{"molecule": "COc1cc2c(cc1OC)C(C#N)N(C(=O)c1ccccc1)C=C2OC(=O)c1ccccc1 (configuration not stated)", "GI50": "27.9 µM (inactive)"}
{"molecule": "CC(NC(=O)C1CCC(=O)N1)C(=O)N1CCCC1C(N)=O (stereo not drawn) ([pGlu]-Ala-Pro-NH2; configuration not given here)", "GI50": "> 100 µM (inactive)"}
{"molecule": "COc1cc(C(=O)O[C@@H]2[C@@H](OC(=O)c3cc(OC)c(OC)c(OC)c3)[C@@H](OC)O[C@@H]3CO[C@@H](c4ccccc4)O[C@@H]23)cc(OC)c1OC", "GI50": "> 100 µM (inactive)"}

###

# System: OVCAR-3
# test.summary: NCI tumour cell line growth inhibition, 48 h
The source made the active and inactive calls. Cut-off read from the data, not from the text of the source: active = GI50 up to about 1.1 µM and inactive = higher.
In this section we review reported GI50 values for a set of molecules.
measured.quantity: GI50

{"molecule": "O=C1NC2=C(CCCC/C2=N\\O)C12CCCCC2", "measured.quantity": "GI50", "recorded.measurement": "> 100 µM (inactive)"}
{"molecule": "Cc1cc(N(CCC#N)CCC#N)ccc1C(/N=N/c1ccc(C(=O)O)cc1)=N\\NC(=O)c1ccccc1", "measured.quantity": "GI50", "recorded.measurement": "> 10 µM (inactive)"}
{"molecule": "C[C@@H](NC(=O)c1ccc(CNC(=O)/C=C/c2cccc(Oc3ccccc3)c2)cc1)c1ccccc1", "measured.quantity": "GI50", "recorded.measurement": "72.1 µM (inactive)"}
{"molecule": "CC(C)CCCC(C)[C@H]1CCC2[C@@H]3CCC4Cc5nc6c(nc5C[C@]4(C)C3CC[C@@]21C)CC1CC[C@@H]2C(CC[C@@]3(C)C2CC[C@@H]3O)[C@@]1(C)C6 (some centres undefined)", "measured.quantity": "GI50", "recorded.measurement": "> 100 µM (inactive)"}
{"molecule": "CC(C)(C)c1cc(C(O)(C(F)(F)F)C(F)(F)F)c2c(c1)C(C(F)(F)F)(C(F)(F)F)OC(C(C)(C)C)N2 (centres undefined)", "measured.quantity": "GI50", "recorded.measurement": "2.58 µM (inactive)"}
{"molecule": "C=CC(=O)NCNC(=O)C=C", "measured.quantity": "GI50", "recorded.measurement": "> 100 µM (inactive)"}
{"molecule": "CC(=O)OCC1OC(OCCCCCCO)C(OC(C)=O)C(OC(C)=O)C1OC(C)=O (centres undefined)", "measured.quantity": "GI50", "recorded.measurement": "> 100 µM (inactive)"}
{"molecule": "O=C(CCc1nnc(S)[nH]1)Nc1ccc(Cl)c(Cl)c1", "measured.quantity": "GI50", "recorded.measurement": "40.6 µM (inactive)"}
{"molecule": "COc1cc2c(cc1OC)C(C#N)N(C(=O)c1ccccc1)C=C2OC(=O)c1ccccc1 (centres undefined)", "measured.quantity": "GI50", "recorded.measurement": "21.3 µM (inactive)"}
